# target-or-test-system: sGC α1/β1 heterodimer (Homo sapiens, UniProt Q02108+Q02153)
# Construct: expressed in transfected cells; host or cells: CHO-K1 (clone #7, CHO-K1/sGC)
# assay-procedure: Cell-based sGC functional assay (CASA assay): cGMP generation in CHO-K1/sGC cells, HTRF detection
# assay-conditions: CHO-K1, percent activation relative to standard Compound A in CHO-K1/sGC cells; read-out: % Act.
assay-readout: Emax (%)

CC1(c2ccc(F)cc2)C(=O)Nc2nc(-c3cn4ccnc4c(CCC(F)(F)F)n3)nc(N)c21 (centres unmarked) [Example 184A]
134
CCn1cc(C2(C)C(=O)Nc3nc(-c4cn5ccnc5c(Cc5ccc(F)cc5)n4)nc(N)c32)nn1 (centres unmarked) [Example 64A]
115
CC(C)Cc1nc(-c2nc(N)c3c(n2)NC(=O)C3(C)c2ccc(OC(F)(F)F)cc2)cn2ccnc12 (centres unmarked) [Example 25A]
87
Cc1nc2c(CCC(F)(F)C(F)(F)F)nc(-c3nc(N)c4c(n3)NC(=O)C4(C)c3ccc(F)cc3)cn2c1Br (centres unmarked) [Example 266A]
101
Cc1cncc(C2(C3CC3)C(=O)Nc3nc(-c4cn5ccnc5c(CCC(F)(F)C(F)(F)F)n4)nc(N)c32)n1 (single isomer, unassigned) [Example 366B]
122

* * *

# target-or-test-system: sGC α1/β1 heterodimer (Homo sapiens, UniProt Q02108+Q02153)
# Construct: expressed in transfected cells; host or cells: CHO-K1 (clone #7, CHO-K1/sGC)
# Sequence (Q02108 1-690): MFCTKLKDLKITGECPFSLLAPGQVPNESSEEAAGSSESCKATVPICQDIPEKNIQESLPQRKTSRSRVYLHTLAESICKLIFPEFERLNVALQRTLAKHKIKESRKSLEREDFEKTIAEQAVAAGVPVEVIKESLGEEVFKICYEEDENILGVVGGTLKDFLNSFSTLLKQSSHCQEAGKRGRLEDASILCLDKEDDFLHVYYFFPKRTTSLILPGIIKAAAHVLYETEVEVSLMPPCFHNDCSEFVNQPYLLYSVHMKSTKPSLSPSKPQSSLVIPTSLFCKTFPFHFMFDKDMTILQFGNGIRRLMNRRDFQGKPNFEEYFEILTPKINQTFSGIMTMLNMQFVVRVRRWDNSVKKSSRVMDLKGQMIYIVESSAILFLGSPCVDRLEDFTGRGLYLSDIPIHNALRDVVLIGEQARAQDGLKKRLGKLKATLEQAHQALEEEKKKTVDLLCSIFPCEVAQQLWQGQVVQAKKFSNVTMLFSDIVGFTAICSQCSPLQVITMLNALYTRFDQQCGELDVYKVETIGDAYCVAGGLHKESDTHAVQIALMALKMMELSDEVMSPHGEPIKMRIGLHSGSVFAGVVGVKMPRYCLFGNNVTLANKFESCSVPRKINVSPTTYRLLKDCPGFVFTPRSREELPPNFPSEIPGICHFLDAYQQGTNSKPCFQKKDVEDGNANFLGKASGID
# Sequence (Q02153 1-619): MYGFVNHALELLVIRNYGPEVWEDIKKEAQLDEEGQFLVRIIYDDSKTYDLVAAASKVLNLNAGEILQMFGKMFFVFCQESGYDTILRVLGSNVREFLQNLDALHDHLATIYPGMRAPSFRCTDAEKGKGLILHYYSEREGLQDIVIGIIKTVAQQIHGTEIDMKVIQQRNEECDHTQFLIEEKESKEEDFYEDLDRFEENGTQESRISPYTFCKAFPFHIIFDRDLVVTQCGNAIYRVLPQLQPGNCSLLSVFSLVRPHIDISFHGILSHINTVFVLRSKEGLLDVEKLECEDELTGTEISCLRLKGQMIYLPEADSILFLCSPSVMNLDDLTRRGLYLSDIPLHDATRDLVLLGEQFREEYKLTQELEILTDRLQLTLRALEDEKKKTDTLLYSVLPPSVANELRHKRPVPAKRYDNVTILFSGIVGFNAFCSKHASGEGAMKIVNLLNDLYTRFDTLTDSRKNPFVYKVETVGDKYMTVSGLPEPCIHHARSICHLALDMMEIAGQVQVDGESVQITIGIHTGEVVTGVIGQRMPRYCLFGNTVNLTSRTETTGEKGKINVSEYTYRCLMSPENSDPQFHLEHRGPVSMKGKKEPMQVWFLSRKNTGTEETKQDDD
# assay-procedure: Cell-based sGC functional assay (CASA assay): cGMP generation in CHO-K1/sGC cells, HTRF detection
# assay-conditions: CHO-K1, percent activation relative to standard Compound A in CHO-K1/sGC cells; read-out: % Act.
assay-readout: Emax (%)

CC1(C2CC2)C(=O)Nc2nc(-c3cn4ccnc4c(Cc4ccccc4)n3)nc(N)c21 (single isomer, unassigned) [Example 82B]
114
Nc1nc(-c2cn3cc(C(F)(F)F)nc3c(Cc3ccccc3F)n2)nc2c1C(C(=O)NC1CC1)(C1CC1)C(=O)N2 (stereo not shown) [Example 45A]
86
Nc1nc(-c2cn3ccnc3c(CCC(F)(F)C(F)(F)F)n2)nc2c1C(c1cncc(F)c1)(C1CC1)C(=O)N2 (stereo not shown) [Example 353B]
168
CC1(c2nnc(C3CC3)s2)C(=O)Nc2nc(-c3cn4ccnc4c(CCC(F)(F)C(F)(F)F)n3)nc(N)c21 (stereo not shown) [Example 59A]
97
CC1(c2ccc(OC(F)(F)F)cc2)C(=O)Nc2nc(-c3cn4ccnc4c(CCC(F)(F)F)n3)nc(N)c21 (stereo not shown) [Example 196B]
106
Nc1nc(-c2cn3ccnc3c(CCC(F)(F)F)n2)nc2c1C(c1ccc(Br)cc1)(C1CC1)C(=O)N2 (stereo not shown) [Example 200A]
96
CC1(c2ccccc2)C(=O)Nc2nc(-c3cn4cc(C5CC5)nc4c(CCC(F)(F)C(F)(F)F)n3)nc(N)c21 (stereo not shown) [Example 158B]
109
CC1(c2ccccc2)C(=O)Nc2nc(-c3cn4ccnc4c(CCC(F)(F)F)n3)nc(N)c21 (stereo not shown) [Example 188B]
154
CCCCc1nc(-c2nc(N)c3c(n2)NC(=O)C3(c2cc(C(F)(F)F)ccn2)C2CC2)cn2ccnc12 (single isomer, unassigned) [Example 367B]
170
CC1(c2ccc(F)cc2)C(=O)Nc2nc(-c3cn4ccnc4c(Cc4ccccc4F)n3)nc(N)c21 (stereo not shown) [Example 89A]
141

a. CCCCc1nc(-c2nc(N)c3c(n2)NC(=O)C3(c2ccc(Cl)cn2)C2CC2)cn2ccnc12 (stereo not shown) [Example 336B]
b. CCC1(c2ccc(F)cn2)C(=O)Nc2nc(-c3cn4ccnc4c(Cc4ccc(F)cc4)n3)nc(N)c21 (stereo not shown) [Example 106A]
Of the two listed items, which has the higher Emax? First: a Second: b Identify your pick by its label.
a
(a: 131%, b: 83%)

a. CC1(c2ccc(F)cn2)C(=O)Nc2nc(-c3cn4ccnc4c(CCC(F)(F)C(F)(F)F)n3)nc(N)c21 (stereo not shown) [Example 246B]
b. Cc1cnc(C2(C3CC3)C(=O)Nc3nc(-c4cn5ccnc5c(CCC(F)(F)C(F)(F)F)n4)nc(N)c32)cn1 (single isomer, unassigned) [Example 342B]
Between item a and item b , which reported Emax is smaller? Identify your pick by its label.
a
(a: 114%, b: 177%)

a. CCCCc1nc(-c2nc(N)c3c(n2)NC(=O)C3(C)c2ccc(C(F)(F)F)cn2)cn2c(C)cnc12 (stereo not shown) [Example 167B]
b. CC1CN(c2nc(-c3cn4ccnc4c(CCC(F)(F)C(F)(F)F)n3)nc3c2C(C)(c2ccc(F)cc2)C(=O)N3)C1 (stereo not shown) [Example 305A]
Between item a and item b , which reported Emax is smaller? Identify your pick by its label.
a
(a: 99%, b: 158%)
